- ASSAY SYSTEM: recombinant human KLK5 (human) (UniProt Q9Y337)
- Sequence (Q9Y337 67-293): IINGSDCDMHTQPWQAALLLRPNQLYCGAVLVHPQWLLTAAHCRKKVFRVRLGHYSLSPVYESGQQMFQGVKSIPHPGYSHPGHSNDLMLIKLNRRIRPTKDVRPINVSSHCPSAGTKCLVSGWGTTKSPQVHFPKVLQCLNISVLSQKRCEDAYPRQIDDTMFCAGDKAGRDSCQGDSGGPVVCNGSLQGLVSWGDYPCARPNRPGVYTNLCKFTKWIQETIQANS
- EXPERIMENT DESCRIPTION: pro-KLK1 LC/MS assay, 0.5 nM KLK5
PROPERTY: IC50 (nM)
Please respond with the number in nM and leave the unit unwritten.

Below are worked cases with known answers.
BINDER	UNIT SYMBOL	IC50
8B7 (antibody, V domains shown) VH: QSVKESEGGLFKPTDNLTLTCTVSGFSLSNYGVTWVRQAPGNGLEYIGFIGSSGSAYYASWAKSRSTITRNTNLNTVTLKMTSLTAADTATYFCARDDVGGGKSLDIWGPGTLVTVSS VL: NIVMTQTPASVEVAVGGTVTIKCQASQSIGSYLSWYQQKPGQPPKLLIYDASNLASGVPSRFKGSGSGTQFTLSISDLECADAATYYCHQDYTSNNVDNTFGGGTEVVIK	nM	0.09
10H3 (antibody, V domains shown) VH: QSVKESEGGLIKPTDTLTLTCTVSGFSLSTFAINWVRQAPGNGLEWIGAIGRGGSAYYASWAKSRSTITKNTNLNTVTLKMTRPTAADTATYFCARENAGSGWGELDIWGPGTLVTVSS VL: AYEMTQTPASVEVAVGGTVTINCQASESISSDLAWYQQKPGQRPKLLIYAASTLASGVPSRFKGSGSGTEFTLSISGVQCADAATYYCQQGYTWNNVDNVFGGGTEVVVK	nM	0.08

For record 9H5 (antibody, V domains shown) VH: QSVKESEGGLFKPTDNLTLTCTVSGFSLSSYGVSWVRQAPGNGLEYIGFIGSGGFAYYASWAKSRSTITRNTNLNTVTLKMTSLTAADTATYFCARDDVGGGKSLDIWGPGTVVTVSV VL: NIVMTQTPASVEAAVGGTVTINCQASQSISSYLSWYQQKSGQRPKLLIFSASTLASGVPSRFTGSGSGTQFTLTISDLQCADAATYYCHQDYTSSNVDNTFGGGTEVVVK the listed IC50 is 0.19

The origin of these recorded values is patent US20200040103A1.
